Experiment: Quantitative highthroughput screen to assess conditional lethalithy of P12 Ichikawa cells grown in RPMI1640 with dialyzed fetal bovine serum (RPMI+ds) (AID 1963880); note: nearly all actives have a fitted effect of over 35% in size; note: potency is the fitted concentration of half-maximal effect
Settings: ATP luminescence, 48 h; P12-Ichikawa viability; series mostly up to 45.8 µM
Description: Assay Provider: Jason Cantor Ph.D. Department of Biochemistry University of Wisconsin-Madison, Madison, WI, USA Chemical screening studies have identified drug sensitivities across hundreds of cancer cell lines but most putative therapeutics fail to translate. […] Sets of conditional anticancer compounds spanned phases of clinical development and included non-oncology drugs were assessed. […] 6; Detection; Luminescence, Viewlux PerkinElmer. […]
Results filed as inconclusive are left out. The source made the active and inactive calls. Calls come from the whole dose curve; as a rule, active = well fitted cell-killing curve with a large enough effect; inconclusive = small, poorly fitted or top-dose-only effect; inactive = flat fitted curve, though single readings scatter.
Measured parameter: Potency

* CN(CCOc1ccc(NS(C)(=O)=O)cc1)CCc1ccc(NS(C)(=O)=O)cc1 | inactive
* N[C@@H](Cc1cc(I)c(Oc2cc(I)c(O)c(I)c2)c(I)c1)C(=O)O | inactive
* CN(C(Cc1ccc(OS(=O)(=O)c2cccc3cnccc23)cc1)C(=O)N1CCN(c2ccccc2)CC1)S(=O)(=O)c1cccc2cnccc12 (configuration not stated) | 18.7 µM (active)
* CCOC(=O)C1=C[C@@H](OC(CC)CC)[C@H](NC(C)=O)[C@@H](N)C1 | inactive

Turning to the following compound.
Entry CCn1cc(C(=O)O)c(=O)c2cc(F)c(N3CCNC(C)C3)c(F)c21 (configuration not stated) : reported Potency = ?
inactive
